# measured.on: T1, rabbit albumin (rabbit, UniProt P49065 25-608)
# T1 construct: bought (Sigma); also called rabbit SA; BuSA
# protocol.summary: SPR (BIAcore), albumin immobilized
pKd: −log10 of the molar value. Bridges are numbered along the chain shown (N, C = ends). Where no end group is shown, it is not given here.
# key: entry, value: pKd
quantity: pKd

binder	observed.result
QRLMEDICLPRWGCLWEDDF-NH2 (disulfide 8-14, synthetic; disulfide oxidised) [SA06]	6.84
Ac-QGLIGDICLPRWGCLWGDSVK-NH2 (disulfide 8-14 (inferred), synthetic; disulfide oxidised) [SA08]	6.97
Ac-RLIEDICLPRWGCLWEDD-NH2 (disulfide 7-13 (inferred), synthetic; disulfide oxidised) [SA21]	6.49
GEWWEDICLPRWGCLWEEED-NH2 (disulfide 8-14 (inferred), synthetic) [SA15]	7.19
